src = ChEMBL document CHEMBL1201862

# Test system: COLO 205
# Protocol Summary: NCI tumour cell line growth inhibition, 48 h
The source made the active and inactive calls. No stated cut-off is given here; in the data, active = GI50 up to about 1.1 µM and inactive = higher.
Listing: GI50 of selected compounds

Reference set, count: 5
Compound: COC(=O)c1ccc2n1C1CC3CC(CC2C3)C1
Observed Value: > 100 µM (inactive)
//
Compound: Cc1ccccc1Nc1nc(NNC(=O)Cc2ccccc2)nc(NNC(=O)c2ccncc2)n1
Observed Value: > 10 µM (inactive)
//
Compound: COc1cc2c(SCCN(C)C)nc3ccccc3c2c2ccccc12
Observed Value: 1.68 µM (inactive)
//
Compound: CC1=C(N(C)C)C(=O)c2nc3n(c2C1=O)CCC3OC(N)=O (centres undefined)
Observed Value: 18 µM (inactive)
//
Compound: CN(C)CCNC(=O)c1cc(NC(=O)c2cc(NC(=O)CC/C=C3/[C@@H]4CC[C@H]3N=N4)cn2C)cn1C
Observed Value: > 100 µM (inactive)

Check the records and state GI50 for CC(=O)OC1C[C@H]2C(OC(=O)c3ccccc3)C3C4(OC(C)=O)COC4C[C@H](OC(C)=O)[C@@]3(C)C(OC(C)=O)[C@H](OC(C)=O)C(=C1C)C2(C)C (some centres undefined)
42.7 µM (inactive)

Check the records and state GI50 for Cc1ccc(/C=C2/N/C(=N\N=C/C(O)C(O)C(O)CO)NC2=O)cc1 (centres undefined)
> 100 µM (inactive)

Check the records and state GI50 for OCCCSc1ccccc1SCCCO
> 100 µM (inactive)

Check the records and state GI50 for COC(=O)C1(CCC(=O)N(C)c2ccccc2)NNC2C(=O)N(c3ccccc3)C(=O)C21 (centres undefined)
> 10 µM (inactive)

###

# Test system: HCT-116
# Protocol Summary: NCI tumour cell line growth inhibition, 48 h
Calls of active or inactive are those of the source. No stated cut-off is given here; in the data, active = GI50 up to about 1.1 µM and inactive = higher.
Recorded Endpoint: GI50

Compound: O=C(c1cc2ccccc2cc1O)N1CCCCC1
GI50: 39.6 µM (inactive)
//
Compound: O=C(O)CCSC(=O)Nc1ccc(/N=N/c2ccccc2)cc1
GI50: > 100 µM (inactive)
//
Compound: CN1CCN(c2ccc3[nH]c(-c4ccc5[nH]c(CCCc6ccc(N(CCCl)CCCl)cc6)nc5c4)nc3c2)CC1
GI50: > 100 µM (inactive)

Identify measured GI50 obtained with HCT-116 for CC(C)C(C/C=C1\CC(CO)(COC(=O)C2CCCCC2)OC1=O)C(C)C (stereo not given) .
19.2 µM (inactive)

Identify measured GI50 obtained with HCT-116 for O=C(NNc1nc(-c2ccccc2)cs1)Nc1ccccc1 .
25.5 µM (inactive)

Identify measured GI50 obtained with HCT-116 for COC(=O)C(NC(=O)c1ccccc1)C(c1ccc(Cl)cc1)P(=O)(OC)OC (stereo not given) .
> 100 µM (inactive)

Identify measured GI50 obtained with HCT-116 for CCCCN(CCCC)CC(C(=O)Nc1ccc([N+](=O)[O-])cc1[N+](=O)[O-])/C(C)=N\NC(=S)NN (stereo not given) .
> 100 µM (inactive)

Identify measured GI50 obtained with HCT-116 for COc1ccc2cc3[n+](cc2c1O)CCc1cc2c(cc1-3)OCO2 [BERBERRUBINE CHLORIDE] .
83 µM (inactive)

Identify measured GI50 obtained with HCT-116 for COc1ccc(C2Oc3c(cccc3OC)C=C2[N+](=O)[O-])cc1OC (stereo not given) .
4.55 µM (inactive)

Identify measured GI50 obtained with HCT-116 for CC(C)(C)OC(=O)N1N=NC2C3CC(=O)C(O3)C21 (stereo not given) .
> 10 µM (inactive)
